ASSAYED TARGET: cAMP-dependent protein kinase catalytic subunit PRKX (Homo sapiens);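 also: each value is the mean percent inhibition of the kinase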
TEST PARAMETERS: at 1 µM
Property: inhibition; scope: individual compounds
MEASURE: inhibition (%)

- c1cnn2ncc(-c3ccnc(NCCCN4CCOCC4)n3)c2c1: 3.97
- CN(C)CCNC(=O)Nc1ccc(N(C)c2ccnc(Nc3ccc(CS(C)(=O)=O)cc3)n2)cc1: 0.09
- CC1=C(C(=O)Nc2ccc3[nH]nc(C)c3c2)C(c2ccc(C(F)(F)F)cc2)CC(=O)N1 (stereo unspecified): 47
- COc1cc(Nc2ncc(-c3ccccc3)o2)cc(OC)c1: 4.53
- CNC(=O)c1cncc(/C=C/c2ccccc2C)c1: 6.15
- CS(=O)(=O)CCNCc1ccc(-c2ccc3ncnc(Nc4ccc(OCc5ccccc5)cc4)c3c2)o1: 1.49

---

ASSAYED TARGET: Muscle, skeletal receptor tyrosine-protein kinase (Homo sapiens);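 also: values are mean inhibition of MuSK from the GSK PKIS kinase screening panel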
Sequence (whole entry): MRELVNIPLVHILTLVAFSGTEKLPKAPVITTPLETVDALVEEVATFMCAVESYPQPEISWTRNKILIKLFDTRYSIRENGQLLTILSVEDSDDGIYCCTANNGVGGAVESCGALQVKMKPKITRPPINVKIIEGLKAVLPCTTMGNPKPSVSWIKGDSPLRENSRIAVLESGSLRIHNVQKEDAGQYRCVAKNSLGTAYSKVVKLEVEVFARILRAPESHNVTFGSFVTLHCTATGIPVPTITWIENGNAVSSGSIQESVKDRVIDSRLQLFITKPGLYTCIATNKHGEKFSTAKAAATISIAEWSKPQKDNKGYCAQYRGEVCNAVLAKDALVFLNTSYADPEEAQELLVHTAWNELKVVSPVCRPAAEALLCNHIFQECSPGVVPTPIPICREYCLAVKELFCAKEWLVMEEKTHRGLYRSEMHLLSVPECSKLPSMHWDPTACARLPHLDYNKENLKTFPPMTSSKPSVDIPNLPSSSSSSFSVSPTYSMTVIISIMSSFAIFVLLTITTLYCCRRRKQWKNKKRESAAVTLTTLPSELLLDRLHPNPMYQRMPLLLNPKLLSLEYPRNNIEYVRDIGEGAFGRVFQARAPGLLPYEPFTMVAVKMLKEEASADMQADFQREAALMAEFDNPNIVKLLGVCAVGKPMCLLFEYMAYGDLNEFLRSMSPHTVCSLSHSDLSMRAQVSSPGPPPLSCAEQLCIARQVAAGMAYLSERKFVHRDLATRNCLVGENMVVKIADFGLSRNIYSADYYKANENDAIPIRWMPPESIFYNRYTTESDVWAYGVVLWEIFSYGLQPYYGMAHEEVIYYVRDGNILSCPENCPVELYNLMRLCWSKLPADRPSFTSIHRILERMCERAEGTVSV
TEST PARAMETERS: at 0.1 µM
MEASURE: inhibition (%)

• c1ccc(-c2n[nH]cc2-c2ccnc(-c3ccc(OCCn4ccnc4)cc3)c2)nc1 = 0.34
• Cc1cc(O)cc(C)c1/C=C/c1cncc(C(=O)OC(C)(C)C)c1 = 3.21
• Cn1c(-c2nonc2N)nc2cnccc21 = 2.14
• COc1ccccc1-c1cc(/C=C2\C(=O)Nc3ncc(Br)cc32)cc(Br)c1O = 1.98
• CS(=O)(=O)CCNCc1ccc(-c2ccc3ncnc(Nc4ccc(OCc5ccccc5)cc4)c3c2)o1 = 2.69

---

ASSAYED TARGET: cGMP-dependent protein kinase 2 (Homo sapiens);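 also: reported figure is a mean inhibition value against PRKG2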
Sequence (whole entry): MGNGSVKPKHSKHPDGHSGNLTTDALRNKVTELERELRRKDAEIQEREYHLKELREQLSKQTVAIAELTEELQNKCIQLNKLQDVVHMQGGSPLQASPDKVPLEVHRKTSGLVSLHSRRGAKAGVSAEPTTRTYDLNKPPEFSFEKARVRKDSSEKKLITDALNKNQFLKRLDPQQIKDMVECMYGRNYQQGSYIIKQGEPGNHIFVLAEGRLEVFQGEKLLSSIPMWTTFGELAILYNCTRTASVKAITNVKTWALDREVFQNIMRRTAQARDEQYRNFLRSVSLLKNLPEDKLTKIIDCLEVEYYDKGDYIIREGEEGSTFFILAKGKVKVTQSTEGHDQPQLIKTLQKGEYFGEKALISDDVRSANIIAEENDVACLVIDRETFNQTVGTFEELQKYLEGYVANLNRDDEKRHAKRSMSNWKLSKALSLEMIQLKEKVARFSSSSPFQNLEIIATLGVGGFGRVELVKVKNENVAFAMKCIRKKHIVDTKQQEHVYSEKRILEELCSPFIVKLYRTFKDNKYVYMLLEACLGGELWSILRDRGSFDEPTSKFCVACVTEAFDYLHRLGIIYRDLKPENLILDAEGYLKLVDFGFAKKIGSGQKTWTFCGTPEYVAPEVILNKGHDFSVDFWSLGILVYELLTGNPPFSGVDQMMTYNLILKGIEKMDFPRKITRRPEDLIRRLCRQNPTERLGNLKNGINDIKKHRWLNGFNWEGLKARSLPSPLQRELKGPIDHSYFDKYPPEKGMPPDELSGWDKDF
TEST PARAMETERS: at 0.1 µM
MEASURE: inhibition (%)

• c1cnn2ncc(-c3ccnc(NCCCN4CCOCC4)n3)c2c1 = 3.44
• O=C(O[C@H]1CN[C@H](C#Cc2cc3ncnc(Nc4ccc5c(cnn5Cc5ccccc5)c4)c3s2)C1)N1CCOCC1 = -0.72
• CCN1CCC(C(=O)Nc2n[nH]c3nnc(-c4cccc(F)c4F)cc23)CC1 = -1.12
• O=C(O[C@H]1CN[C@H](C#Cc2cc3ncnc(Nc4ccc5c(ccn5Cc5cc(F)ccc5F)c4)c3s2)C1)N1CCOCC1 = 2.56
• c1ccc(-c2n[nH]cc2-c2ccnc(-c3ccc(OCCn4ccnc4)cc3)c2)nc1 = 1.04
• NS(=O)(=O)c1ccc(N/N=C2\C(=O)Nc3ccc(C(=O)NCc4ccncc4)cc32)cc1 = 5.42
• O=C(O[C@H]1CN[C@H](C#Cc2cc3ncnc(Nc4ccc(OCc5cccc(F)c5)c(Cl)c4)c3s2)C1)N1CCOCC1 = 3.07
• COC(=O)Nc1nc2cc(Oc3ccc(NC(=O)Nc4ccccc4)cc3)ccc2[nH]1 = 1.5
• CS(=O)(=O)Nc1ccc(-c2ccc3c(NC(=O)C4CC4)n[nH]c3c2)cc1 = 1.29
• NS(=O)(=O)c1cccc(N/C=C2\C(=O)Nc3ccccc32)c1 = 1.91
• COc1cc(N2CCN(C(C)C)CC2)ccc1Nc1nc(Nc2cccc3ncccc23)c2cc[nH]c2n1 = 0.84
• CCn1c(-c2nonc2N)nc2cncc(C(=O)NCCNC)c21 = 61.7
• Cc1nnc(-c2cccc(-c3ccc(C(=O)NCC4CC4)cc3)c2)o1 = 3.23
• Cc1cc(O)cc(C)c1/C=C/c1cncc(C(=O)OC(C)(C)C)c1 = 1.21
• CC(C)c1ccc(-c2cc(-c3c[nH]nc3-c3ccccn3)ccn2)cc1 = -0.11
• COc1ccc2ncn(-c3cc(O[C@H](C)c4ccccc4C(F)(F)F)c(C(N)=O)s3)c2c1 = 0.1
• CS(=O)(=O)CCNCc1ccc(-c2ccc3ncnc(Nc4ccc(OCc5ccccc5)cc4)c3c2)o1 = 2.69
• NC(=O)c1ccc2c(-c3ccnc(NCCCO)n3)c(-c3ccc(F)cc3)nn2c1 = 1.84
• NS(=O)(=O)c1ccc(N/N=C2\C(=O)Nc3cccc(CCc4ccncc4)c32)cc1 = -0.44
